Sourced from patent US6423701B1

Assay: Nasal absorption of TSDG in rats: plasma levels after intranasal and intravenous administration, HPLC
Assay type: in vivo
Conditions: male, Sprague-Dawley, rat, inhaled or intranasal, intranasal, dose 50 mg/kg
measured-parameter: AUC (ng·h/mL)
Answer with a number only, understood to be in ng·h/mL.

Request: # input compound: C[C@]12CC[C@H]3[C@@H](CCC4=CC(=O)CC[C@@]43C)[C@@H]1CC[C@@H]2O [TS, 17β-hydroxyandrost-4-en-3-one] ; wanted: its AUC
Result: 3490

---

Experiment: Nasal absorption of TSDG in rats: plasma levels after intranasal and intravenous administration, HPLC
Assay type: in vivo
Conditions: male, Sprague-Dawley, rat, inhaled or intranasal, intranasal, dose 25 mg/kg
measured-parameter: AUC (ng·h/mL)
A number alone suffices; assume ng·h/mL.

Request: For C[C@]12CC[C@H]3[C@@H](CCC4=CC(=O)CC[C@@]43C)[C@@H]1CC[C@@H]2O [TS, 17β-hydroxyandrost-4-en-3-one] , what is its reported AUC?
Result: 1830
